study-system: MAST2, Q6P0Q8
Sequence (Q6P0Q8 1099-1202): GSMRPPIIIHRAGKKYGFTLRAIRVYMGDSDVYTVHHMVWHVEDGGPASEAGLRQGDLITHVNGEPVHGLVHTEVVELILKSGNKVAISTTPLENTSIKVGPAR
experiment-summary: holdup assay
Parameters: key: below the threshold = too weak to quantify, mostly under pKd 3.1 to 4
condition-summary: plain residues with an end cap or a label only (N-terminal biotin on a linker: ado-ado)

| binder | pKd |
| --- | --- |
| QGLAERISVL [PRKD2, Q9BZL6] | 5.53 |
| SSALYGESDL [ACTN2, P35609] | 5.52 |
| KSGKQTMLVV [TRIM29, Q14134] | 3.62 |
| EVNETDDTKM [KCNJ1, P48048] | 4.83 |
| EKKTLIGIKL [GOT1L1, Q8NHS2] | 4.66 |
| LGRSTPQSEV [DGKH, Q86XP1] | 4.85 |
| LPHGHSTTRV [NLGN4X, Q8N0W4] | 5.12 |
| VNKSKLLTDV [KCNA1, Q09470] | 5.07 |
| QGPVETESVV [SLC45A4, Q5BKX6] | 4.73 |
| QMNQTLPVQV [EPHB3, P54753] | 4.1 |
| DTTVPESEDL [MYOZ2, Q9NPC6] | 4.7 |
| RRISSLESEV [GRIN2C, Q14957] | 5.07 |
| RKPKPSSSCC [RAB9A, P51151] | 3.69 |
| VKPQVSESKL [ACOT8, O14734] | 5.52 |
| SKENVQETQI [LRRC4B, Q9NT99] | 5.56 |
| PKRSFIESNV [TANC1, Q9C0D5] | 5.2 |
| RRRESYSTTV [EVI5, O60447] | 5.66 |
| QSARLWETSI [ADAM22, Q9P0K1] | 5.62 |
| LPAHHNATRL [SLC34A1, Q06495;Q06495-1] | 5.47 |
| GQEEQVTTRL [TRPC5, Q9UL62] | 5.62 |
| SAKVRTVTSV [RASL11B, Q9BPW5] | 5.3 |
| LKVPPEERLI [CRB2, Q5IJ48] | 4.3 |
| LPHPHSTTRV [NLGN2, Q8NFZ4] | 5.19 |
| PDGQCTVTEV [RNF146, Q9NTX7] | 5.28 |

Hey, just so you know, these numbers are from paper PMC9482650.
